meta.source: the supplement of paper PMC11061612

Recorded Bliss excess by entry
- System: P31-FUJ (Acute Myeloid Leukemia);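 note: after 72 h of two-drug dosing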
- MEASUREMENT_NOTES: Bliss excess, mean over the matrix (fraction); higher = more synergy
QUANTITY_MEASURED: Bliss excess

INSERT INTO assay_data (compound, quantity_measured, quantitative_readout) VALUES
  ('O=C(c1cc(Cc2n[nH]c(=O)c3ccccc23)ccc1F)N1CCN(C(=O)C2CC2)CC1 [Olaparib] + COc1nnc2ccc(N3CCC(c4ccc(OCCN5CCN(C)C(=O)[C@H]5C)cc4)CC3)nn12 [AZD5153] (first compound max 10 µM, 7x7, partner max 1 µM)', 'Bliss excess', -0.0621),
  ('COc1nnc2ccc(N3CCC(c4ccc(OCCN5CCN(C)C(=O)[C@H]5C)cc4)CC3)nn12 [AZD5153] + CCN(CCO)CCCOc1ccc2c(Nc3cc(CC(=O)Nc4cccc(F)c4)[nH]n3)ncnc2c1 [AZD2811] (first compound max 1 µM, 7x7, partner max 1 µM)', 'Bliss excess', -0.0293),
  ('CC1(C)CCC(CN2CCN(c3ccc(C(=O)NS(=O)(=O)c4ccc(NCC5CCOCC5)c([N+](=O)[O-])c4)c(Oc4cnc5[nH]ccc5c4)c3)CC2)=C(c2ccc(Cl)cc2)C1 [Venetoclax] + C=CCn1c(=O)c2cnc(Nc3ccc(N4CCN(C)CC4)cc3)nc2n1-c1cccc(C(C)(C)O)n1 [AZD1775] (first compound max 1 µM, partner max 1 µM)', 'Bliss excess', 0.0685),
  ('CS(=O)(=O)CCNCc1ccc(-c2ccc3ncnc(Nc4ccc(OCc5cccc(F)c5)c(Cl)c4)c3c2)o1 [Lapatinib] + NC1(c2ccc(-c3nc4ccn5c(=O)[nH]nc5c4cc3-c3ccccc3)cc2)CCC1 [MK-2206] (first compound max 10 µM, 7x7, partner max 10 µM)', 'Bliss excess', -0.062),
  ('Cn1cnc2c(F)c(Nc3ccc(Br)cc3Cl)c(C(=O)NOCCO)cc21 [Selumetinib] + C[C@@H]1COCCN1C2=NC(=NC(=C2)C3(CC3)[S@](=N)(=O)C)C4=C5C=CNC5=NC=C4 [AZD6738] (first compound max 10 µM, 7x7, partner max 10 µM)', 'Bliss excess', -0.0802),
  ('NC1(C(=O)N[C@@H](CCO)c2ccc(Cl)cc2)CCN(c2ncnc3[nH]ccc23)CC1 [Capivasertib] + CCN(CCO)CCCOc1ccc2c(Nc3cc(CC(=O)Nc4cccc(F)c4)[nH]n3)ncnc2c1 [AZD2811] (first compound max 10 µM, 7x7, partner max 1 µM)', 'Bliss excess', -0.0663),
  ('C[C@@H](Nc1cc(F)cc(F)c1)c1cc(C(=O)N(C)C)cc2c(=O)cc(N3CCOCC3)oc12 [AZD8186] + CC(=O)c1c(C)c2cnc(Nc3ccc(N4CCNCC4)cn3)nc2n(C2CCCC2)c1=O [Palbociclib] (first compound max 10 µM, 7x7, partner max 10 µM)', 'Bliss excess', -0.0164);

###

- Tested on: YT (Other Blood Carcinomas)
- MEASUREMENT_NOTES: combination Emax (second highest fraction inhibited in the dose matrix, 72 h); higher = more inhibition; extreme values may be limits of the assay
Recorded combination Emax by entry
QUANTITY_MEASURED: combination Emax

INSERT INTO results (compound, quantity_measured, result) VALUES
  ('Cc1cc2ncnn2cc1Nc1ncc2c(n1)n(C1CCOCC1)c(=O)n2C [AZD7648] + CCN(CCO)CCCOc1ccc2c(Nc3cc(CC(=O)Nc4cccc(F)c4)[nH]n3)ncnc2c1 [AZD2811] (first compound max 10 µM, 7x7, partner max 1 µM)', 'combination Emax', 0.624),
  ('N#Cc1cnc(Nc2cc(NC[C@H]3CNCCO3)c(C(F)(F)F)cn2)cn1 [SRA737] + C=CCn1c(=O)c2cnc(Nc3ccc(N4CCN(C)CC4)cc3)nc2n1-c1cccc(C(C)(C)O)n1 [AZD1775] (first compound max 10 µM, partner max 1 µM)', 'combination Emax', 1),
  ('Cn1cnc2c(F)c(Nc3ccc(Br)cc3Cl)c(C(=O)NOCCO)cc21 [Selumetinib] + CC(C)n1c(=O)n(C)c2cnc3cc(F)c(-c4ccc(OCCCN5CCCCC5)nc4)cc3c21 [AZD1390] (first compound max 10 µM, 7x7, partner max 0.3 µM)', 'combination Emax', 0.16),
  ('NC1(C(=O)N[C@@H](CCO)c2ccc(Cl)cc2)CCN(c2ncnc3[nH]ccc23)CC1 [Capivasertib] + Cn1cnc2c(F)c(Nc3ccc(Br)cc3Cl)c(C(=O)NOCCO)cc21 [Selumetinib] (first compound max 10 µM, 7x7, partner max 10 µM)', 'combination Emax', 0.446),
  ('COc1cccc2c1C(=O)c1c(O)c3c(c(O)c1C2=O)C[C@@](O)(C(=O)CO)C[C@@H]3O[C@H]1C[C@H](N)[C@H](O)[C@H](C)O1 [Doxorubicin] + Cc1cc2ncnn2cc1Nc1ncc2c(n1)n(C1CCOCC1)c(=O)n2C [AZD7648] (first compound max 1 µM, 7x7, partner max 10 µM)', 'combination Emax', 0.862),
  ('CN(CCO)CC[C@H](CSc1ccccc1)Nc1ccc(S(=O)(=O)NC(=O)c2ccc(N3CCC([C@@H](O)c4ccccc4-c4ccc(Cl)cc4)CC3)cc2)cc1S(=O)(=O)C(F)(F)F [AZD4320] + Cn1cnc2c(F)c(Nc3ccc(Br)cc3Cl)c(C(=O)NOCCO)cc21 [Selumetinib] (first compound max 1 µM, 7x7, partner max 3 µM)', 'combination Emax', 0.737),
  ('C=CCn1c(=O)c2cnc(Nc3ccc(N4CCN(C)CC4)cc3)nc2n1-c1cccc(C(C)(C)O)n1 [AZD1775] + Nc1ccn([C@@H]2O[C@H](CO)[C@@H](O)C2(F)F)c(=O)n1 [Gemcitabine] (first compound max 1 µM, partner max 0.3 µM)', 'combination Emax', 0.997);
